# target: human recombinant GABA A receptor containing the alpha2, beta2, and gamma2 subunits (Homo sapiens (Human), UniProt P18507+P47869)
# assay.text: Radioligand competition binding assay with [3H]Ro-15-1788 (Flumazenil)
# study.conditions: [3H]flumazenil competition, HEK cell membranes, geometric mean of at least two replicates; read-out: GABA-α2 Ki
recorded.metric: Ki (nM)
Use nM as the unit, but write only the number.

Find the recorded Ki belonging to CCn1ncc2c(-c3ccc(F)c(-c4ccc(S(=O)(=O)CC)cc4)c3)cnnc21 and report it.
17.5
